List of Maximum_MFI values.
Molecular target: T1, human MSLN-R3 on HEK293T-hMSLN-R3 recombinant cells (human, UniProt Q13421 487-606)
T1 construct: the C-terminal limit is uncertain; also called human MSLN-R3 membrane protein
T1 sequence (Q13421 495-614): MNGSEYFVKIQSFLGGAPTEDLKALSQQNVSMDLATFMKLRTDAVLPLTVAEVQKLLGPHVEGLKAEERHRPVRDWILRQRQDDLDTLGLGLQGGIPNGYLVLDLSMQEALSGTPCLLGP
Assay: FACS, HEK293T-hMSLN-R3 cells
Parameter: Maximum_MFI (MFI)

F7.44.20-H10 (scFv, not shown: small tags and cut ends, also called S009-F7.44.20 humanized antibody VH2 + VL2) scFv: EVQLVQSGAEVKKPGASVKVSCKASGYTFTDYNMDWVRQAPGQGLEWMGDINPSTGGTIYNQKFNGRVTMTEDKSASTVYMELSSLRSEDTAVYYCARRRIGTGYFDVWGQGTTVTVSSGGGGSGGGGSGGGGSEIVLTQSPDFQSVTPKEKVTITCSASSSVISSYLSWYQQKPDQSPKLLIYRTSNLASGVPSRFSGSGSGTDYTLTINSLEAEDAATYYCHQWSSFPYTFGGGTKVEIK: 1470
F7.44.20-H8 (scFv, not shown: small tags and cut ends, also called S009-F7.44.20 humanized antibody VH1a + VL4) scFv: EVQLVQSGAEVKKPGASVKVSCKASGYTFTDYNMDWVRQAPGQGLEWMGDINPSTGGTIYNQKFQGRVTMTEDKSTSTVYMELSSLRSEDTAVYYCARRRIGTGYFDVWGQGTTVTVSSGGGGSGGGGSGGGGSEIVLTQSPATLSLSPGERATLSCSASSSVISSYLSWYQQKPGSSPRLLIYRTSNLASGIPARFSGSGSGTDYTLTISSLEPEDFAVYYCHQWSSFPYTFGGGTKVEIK: 1650
F7.44.20-VL-VH (scFv) QIVLTQSPALMSASPGEKVTLTCSASSSVISSYLSWYQQKPGSSPKLLIYRTSNLASGVPARFSGSGSGTSYSLTISSMEAEDAASYFCHQWSSFPYTFGGGTKLEIKGGGGSGGGGSGGGGSEVQLQQSGPELVKPGASVKIPCKASGYTFTDYNMDWVKQSHGKSLEWIGDINPSTGGTIYNQKFNGKATLTEDKSASTVYMEFRSLTSDDTAVYYCARRRIGTGYFDVWGTGTTVTVSS: 1850
F7.44.20-H13 (scFv, not shown: small tags and cut ends, also called S009-F7.44.20 humanized antibody VH2a + VL1) scFv: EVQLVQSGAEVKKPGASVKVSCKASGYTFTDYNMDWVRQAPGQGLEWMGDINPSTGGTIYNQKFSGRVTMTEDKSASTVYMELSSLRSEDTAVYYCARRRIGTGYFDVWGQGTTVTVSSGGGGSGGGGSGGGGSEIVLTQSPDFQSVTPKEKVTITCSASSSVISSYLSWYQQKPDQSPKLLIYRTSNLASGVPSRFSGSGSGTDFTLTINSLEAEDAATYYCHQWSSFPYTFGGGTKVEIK: 1600
F7.44.20-H14 (scFv, not shown: small tags and cut ends, also called S009-F7.44.20 humanized antibody VH2a + VL2) scFv: EVQLVQSGAEVKKPGASVKVSCKASGYTFTDYNMDWVRQAPGQGLEWMGDINPSTGGTIYNQKFSGRVTMTEDKSASTVYMELSSLRSEDTAVYYCARRRIGTGYFDVWGQGTTVTVSSGGGGSGGGGSGGGGSEIVLTQSPDFQSVTPKEKVTITCSASSSVISSYLSWYQQKPDQSPKLLIYRTSNLASGVPSRFSGSGSGTDYTLTINSLEAEDAATYYCHQWSSFPYTFGGGTKVEIK: 1440
F7.44.20-H2 (scFv, not shown: small tags and cut ends, also called S009-F7.44.20 humanized antibody VH1 + VL2) scFv: EVQLVQSGAEVKKPGASVKVSCKASGYTFTDYNMDWVRQAPGQGLEWMGDINPSTGGTIYNQKFNGRVTMTEDKSTSTVYMELSSLRSEDTAVYYCARRRIGTGYFDVWGQGTTVTVSSGGGGSGGGGSGGGGSEIVLTQSPDFQSVTPKEKVTITCSASSSVISSYLSWYQQKPDQSPKLLIYRTSNLASGVPSRFSGSGSGTDYTLTINSLEAEDAATYYCHQWSSFPYTFGGGTKVEIK: 1690
F7.44.20-H16 (scFv, not shown: small tags and cut ends, also called S009-F7.44.20 humanized antibody VH2a + VL4) scFv: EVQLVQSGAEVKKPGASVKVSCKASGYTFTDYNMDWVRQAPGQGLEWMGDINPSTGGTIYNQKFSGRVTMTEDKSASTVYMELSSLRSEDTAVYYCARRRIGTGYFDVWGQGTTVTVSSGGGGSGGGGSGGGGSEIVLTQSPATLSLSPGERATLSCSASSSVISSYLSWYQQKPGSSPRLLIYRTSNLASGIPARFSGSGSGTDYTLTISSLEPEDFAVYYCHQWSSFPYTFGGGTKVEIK: 1440
